Recorded IC50 for the following compounds
- Tested system: Ubiquitin carboxyl-terminal hydrolase 17-like protein 5 (Homo sapiens) (UniProt A8MUK1)
- Sequence (A8MUK1 whole entry, looked up): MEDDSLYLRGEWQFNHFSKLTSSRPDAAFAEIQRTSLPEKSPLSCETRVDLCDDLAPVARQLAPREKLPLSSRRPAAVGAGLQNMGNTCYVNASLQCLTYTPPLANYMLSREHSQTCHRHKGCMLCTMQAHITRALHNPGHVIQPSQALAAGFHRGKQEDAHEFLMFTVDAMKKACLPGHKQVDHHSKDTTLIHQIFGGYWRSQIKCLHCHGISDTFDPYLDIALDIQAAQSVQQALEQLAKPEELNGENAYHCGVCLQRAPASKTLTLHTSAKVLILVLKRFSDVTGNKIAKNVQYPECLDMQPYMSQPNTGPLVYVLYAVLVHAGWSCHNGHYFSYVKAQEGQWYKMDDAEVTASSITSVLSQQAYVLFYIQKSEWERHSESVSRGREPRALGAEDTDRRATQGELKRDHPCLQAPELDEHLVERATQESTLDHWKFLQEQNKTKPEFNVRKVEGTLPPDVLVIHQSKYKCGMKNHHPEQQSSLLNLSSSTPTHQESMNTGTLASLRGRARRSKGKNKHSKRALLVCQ
- Run description: ubiquitin-specific protease 17 DUB inhibitors, concentration-effect assay, cell-free, verification of initial screening actives (AID 1645864)
- Condition parameters: purified USP17, ubiquitin-rhodamine cleavage fluorescence, 3 h
The source made the active and inactive calls.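 Rule for the calls: active = maximal inhibition of USP17 at or above 30% in the confirmation dose-response, a value not among the printed readouts; inactive = the rest.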

{"Compound": "Cc1ccc(NC(=O)Cc2nnc3c(-c4nc(C5CC5)no4)cccn23)cc1", "IC50": "4.85 µM"}
{"Compound": "O=C1Nc2ccccc2C(=O)C1C(c1ccc(Cl)cc1)C1C(=O)Nc2ccccc2C1=O (centres undefined)", "IC50": "35.6 µM"}
{"Compound": "O=C1CC(C(=O)Nc2ccc(F)cc2)n2nc(SCc3ccccc3)nc2N1 (centres undefined)", "IC50": "38.3 µM"}
{"Compound": "CN(C(=O)CSc1nnc(-c2cc3ccccc3n2C)o1)c1ccccc1", "IC50": "> 50 µM (inactive)"}
{"Compound": "COc1c2c(cc3cc(O)c4c(=O)cc(C)oc4c13)CCC2=O", "IC50": "34.3 µM"}
{"Compound": "CCn1cc(-c2nc(-c3ccccn3)no2)c(=O)c2cc(F)ccc21", "IC50": "32.5 µM"}
{"Compound": "CC1CCN(C(=O)c2cn(-c3cc(N4CCC(C)CC4)ncn3)cn2)CC1", "IC50": "> 50 µM (inactive)"}
{"Compound": "COC(=O)C1C(c2ccc(OC)cc2)C2(C(=O)c3ccccc3C2=O)C2C=Cc3ccccc3N12 (centres undefined)", "IC50": "> 50 µM (inactive)"}
{"Compound": "COc1ccc(C(=O)Nc2nc(-c3ccc4c(c3)NC(=O)CO4)c(C)s2)cc1OC", "IC50": "1.23 µM"}
{"Compound": "Fc1cnc(N2CC[C@H]3CO[C@H](CNc4ncccn4)[C@H]3C2)nc1", "IC50": "> 50 µM (inactive)"}
{"Compound": "CS(=O)(=O)N1CCc2cc(C(=O)Nc3ccc(Cc4ccncc4)cc3)ccc21", "IC50": "> 50 µM (inactive)"}
{"Compound": "Cc1cc(/C=C2/C(=N)N3C(c4ccccc4)=CSC3=NC2=O)c(C)n1-c1ccc2ccccc2c1", "IC50": "> 50 µM (inactive)"}
{"Compound": "CCOc1ccccc1C(=O)Oc1ccc2c(C)cc(=O)oc2c1", "IC50": "26.1 µM"}
{"Compound": "Cc1ccc(-c2nnc(-n3ncc(C#N)c3N)c3ccccc23)cc1C", "IC50": "> 50 µM (inactive)"}
{"Compound": "Cc1ccc(S(=O)(=O)N2CCC3(CC2)NC(=O)c2ccccc2N3)c(C)c1", "IC50": "17.9 µM"}
{"Compound": "Cc1cc(=O)n(CC(=O)NCc2ccccc2F)c2c1c(C)nn2-c1ccccc1", "IC50": "24.2 µM"}
{"Compound": "CC1OC1C(=O)[C@]1(O)[C@H](C)[C@@H](O)[C@@]23O[C@@]2([C@H](O)c2c(O)cccc2C3=O)[C@H]1O (some centres undefined)", "IC50": "17.9 µM"}
{"Compound": "CCn1cc(NC(=O)CN2CCC3(CC=CCOC3)CC2)c(C)n1", "IC50": "> 50 µM (inactive)"}
{"Compound": "COc1ccc(-c2cc3nc([C@H](C)NC(=O)Cc4cccc(F)c4)nn3cn2)cc1", "IC50": "3.75 µM"}
{"Compound": "Cn1c2ccccc2c2ncn(Cc3ccc(F)cc3)c(=O)c21", "IC50": "43.9 µM"}
{"Compound": "Cc1cc(O)c(=O)cc2c1C[C@H]1CC(C)(C)/C=C/C[C@@]3(C)Oc4cc(=O)c(O)cc(C)c4C[C@@H]3C[C@H](O)[C@]1(C)O2", "IC50": "> 50 µM (inactive)"}
{"Compound": "COc1ccccc1C(=O)NCC(c1ccc2c(c1)CCCN2C)N1CCCC1 (centres undefined)", "IC50": "> 50 µM (inactive)"}
{"Compound": "Cc1[nH]nc(NC(=O)C2COc3ccccc3O2)c1-c1ccccc1 (centres undefined)", "IC50": "34.7 µM"}
{"Compound": "COc1ccc(CCNC(=O)c2noc3c2CCc2sccc2-3)cc1OC", "IC50": "22 µM"}
{"Compound": "Cn1cccc1C(=O)N1CCCC2(C1)Nc1cccnc1NC2=NC1CCCC1 (centres undefined)", "IC50": "> 50 µM (inactive)"}
{"Compound": "Cn1c(=O)c2c(ncn2CC(=O)NC2CCCc3ccccc32)n(C)c1=O (centres undefined)", "IC50": "> 50 µM (inactive)"}
{"Compound": "CCOc1ccc(N2C(=O)c3ccccc3C2C(=O)NCc2ccccc2OC)cc1 (centres undefined)", "IC50": "45.8 µM"}
{"Compound": "c1coc(CNc2nc(Nc3cccc4ccccc34)nc3ccccc23)c1", "IC50": "> 50 µM (inactive)"}
{"Compound": "Nc1c(C(=O)c2cccs2)oc2nc(-c3ccccc3)cc(-c3ccco3)c12", "IC50": "> 50 µM (inactive)"}
{"Compound": "O=C(CC1C(=O)N(Cc2ccccc2)c2nc3ccccc3n21)NCCc1ccccc1 (centres undefined)", "IC50": "18.7 µM"}
{"Compound": "CCOC(=O)c1cc2c(ccn2C)n1CC(=O)N1CCC(C)CC1", "IC50": "> 50 µM (inactive)"}
{"Compound": "CN(C)c1ccc(CCN2CCc3nc4cccnc4cc3C2)cc1", "IC50": "> 50 µM (inactive)"}
{"Compound": "CCOc1cc(N2CCOCC2)c(OCC)cc1NC(=O)c1cc(-c2ccncc2)nc2ccccc12", "IC50": "10.1 µM"}
{"Compound": "COc1c(C)c(C(O)C(C)O)c2[nH]c3ccc(CC=C(C)C)cc3c2c1O (centres undefined)", "IC50": "17.1 µM"}

From: PubChem BioAssay AID1645864
